Values compiled from patent US20110086806A1.

- system: T1, recombinant human IL-23R/Fc chimera (R&D Systems) (human, UniProt Q5VWK5 24-355)
- T1 construct: Bought; also called rhIL23RFc
- T1 sequence (looked up): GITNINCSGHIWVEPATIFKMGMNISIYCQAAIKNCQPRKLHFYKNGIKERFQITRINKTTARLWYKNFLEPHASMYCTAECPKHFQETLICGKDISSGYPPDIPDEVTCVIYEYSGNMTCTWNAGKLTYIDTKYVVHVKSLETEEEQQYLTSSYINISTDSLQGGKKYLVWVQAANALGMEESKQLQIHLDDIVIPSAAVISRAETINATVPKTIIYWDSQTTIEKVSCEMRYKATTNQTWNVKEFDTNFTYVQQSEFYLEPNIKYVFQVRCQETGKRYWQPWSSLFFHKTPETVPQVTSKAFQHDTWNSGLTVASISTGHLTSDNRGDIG
- measurement description: SPR
endpoint name: koff (s⁻¹)

1. 105-20-2G12 ATRIMER complex (designed binder) EPPTQKPKKIVNAKKDVVNTKMFEELKSRLDTLAQEVALLKEQQALQTVCLKGTKVHMKCFLAFTQTKTFHEASEDCISRGGTLSTPQTGSENDALYEYLRQSVGNEAEIWLGLNGSPRTNTWVDMTGARIAYKNWETEITAQPDGGFGYFGENCAVLSGAANGKWFDKRCRDQLPYICQFGIV    0.000262
2. 001-87.A5F monomeric CTLD (designed binder, not shown: small tags and cut ends, C-terminal tag not specified) ALQTVCLKGTKVHMKCFLAFTQTKTFHEASEDCISRGGTLSTPQTGSENDALYEYLRQSVGNEAEIWLGLNGSVRSATWVDMTGARIAYKNWETEITAQPDGGFGYFGENCAVLSGAANGKWFDKRCRDQLPYICQFGIV    0.00415
3. 001-89.C3C ATRIMER complex (designed binder, not shown: C-terminal tag: His/Myc (pANA4) or HA-StrepII (pANA10)) EPPTQKPKKIVNAKKDVVNTKMFEELKSRLDTLAQEVALLKEQQALQTVCLKGTKVHMKCFLAFTQTKTFHEASEDCISRGGTLSTPQTGSENDALYEYLRQSVGNEAEIWLGLNANRRRTMWVDMTGARIAYKNWETEITAQPDGGMGVWGENCAVLSGAANGKWFDKRCRDQLPYICQFGIV    0.000483
